# Assay Notes: Stability of cannabinoid and Vitamin E components of Beverage 1 (AB White) stored at 8° C. and 21-25° C., LCMSMS over 570 days
# Type: physicochemical
# Experimental Parameters: beverage stored at 21-25° C., day 210
Quantity Kind: Stability in AB White, 21-25° C. (content by LCMSMS) (µg/mL)

# Compound, Measured Result
records = [
    ("CCCc1cc(O)c2c(c1)OC(C)(C)[C@@H]1CCC(C)=C[C@@H]21 [THCV, delta-9-tetrahydrocannabivarin]", 3.40),
    ("C=C(C)[C@@H]1CCC(C)=C[C@H]1c1c(O)cc(CCC)cc1O", 0.142),
    ("CCCCCc1cc(O)c2c(c1)OC(C)(C)c1ccc(C)cc1-2", 2.74),
    ("CCCCCc1cc(O)c2c(c1)OC(C)(C)[C@@H]1CCC(C)=C[C@@H]21 [D9 THC, delta-9-tetrahydrocannabinol, reference compound]", 11.4),
    ("CCCCCc1cc2c(c(O)c1C(=O)O)[C@@H]1C=C(C)CC[C@H]1C(C)(C)O2 [D9 THCA, delta-9-tetrahydrocannabinolic acid]", 0.913),
]
